- testTarget: human EP3 receptor (Homo sapiens)
- Sequence (P43115 whole entry): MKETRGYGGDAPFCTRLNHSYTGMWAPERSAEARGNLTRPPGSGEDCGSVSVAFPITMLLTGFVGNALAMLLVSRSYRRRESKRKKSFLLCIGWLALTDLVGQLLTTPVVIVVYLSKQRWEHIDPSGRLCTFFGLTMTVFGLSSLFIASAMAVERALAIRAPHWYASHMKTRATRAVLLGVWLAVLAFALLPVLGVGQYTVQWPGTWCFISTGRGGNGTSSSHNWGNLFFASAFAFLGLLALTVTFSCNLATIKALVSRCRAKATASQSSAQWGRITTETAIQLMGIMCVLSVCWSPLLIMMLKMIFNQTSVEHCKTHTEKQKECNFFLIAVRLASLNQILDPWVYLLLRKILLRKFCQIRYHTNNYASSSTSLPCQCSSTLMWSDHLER
- experimentalDetails: Cellular in vitro assay for determining EP3 receptor activity (human EP3 cell line, sulprostone-stimulated calcium luminescence)
- runParameters: CHO cells expressing human EP3 and mitochondrial Clytin; antagonist mode, sulprostone at EC50; read-out: EP3 CHO mtCLY ANTAG IC50
We label by threshold. Values of IC50 strictly beneath 3 nM are Condition met. Values of 3 nM and up are Condition not met.

compound	qualitativeLabel
Cc1cccc2ncc(-c3cn4nc(C(=O)N[C@H](CCO)c5ccc(F)cc5)c(C(C)C)c4c(=O)[nH]3)cc12	Condition met
Cc1ccc(-c2cn3nc(C(=O)NC4CCN(CC(F)F)C4)c(C4CC4)c3c(=O)[nH]2)cc1C (single isomer, unassigned) [6-454]	Condition not met
C[C@H](NC(=O)c1nn2cc(-c3ccc(Cl)c(F)c3)[nH]c(=O)c2c1C1CCC1)C1CC1	Condition met

Does this compound meet the criterion IC50 < 3 nM? CC(CN1CCOCC1)NC(=O)c1nn2cc(-c3ccc4ccccc4c3)[nH]c(=O)c2c1C(F)(F)F (single isomer, unassigned) [6-523]
Condition not met

API: query returns whether the compound falls strictly under 3 nM in IC50. Query: `C[C@@H](NC(=O)c1nn2cc(-c3ccc4ccccc4c3)[nH]c(=O)c2c1C1CC1)c1ccc(F)cc1`
Condition met

API: query returns whether the compound falls strictly under 3 nM in IC50. Query: Cc1ccc(-c2cn3nc(C(=O)NC(C)c4ccc(F)cc4)cc3c(=O)[nH]2)cc1C(F)(F)F (centres unmarked)
Condition not met
